# SUBJECT_OF_TEST: Histone deacetylase 1 (Homo sapiens, UniProt Q13547)
# Sequence (Q13547 whole entry, the tested form may be a part): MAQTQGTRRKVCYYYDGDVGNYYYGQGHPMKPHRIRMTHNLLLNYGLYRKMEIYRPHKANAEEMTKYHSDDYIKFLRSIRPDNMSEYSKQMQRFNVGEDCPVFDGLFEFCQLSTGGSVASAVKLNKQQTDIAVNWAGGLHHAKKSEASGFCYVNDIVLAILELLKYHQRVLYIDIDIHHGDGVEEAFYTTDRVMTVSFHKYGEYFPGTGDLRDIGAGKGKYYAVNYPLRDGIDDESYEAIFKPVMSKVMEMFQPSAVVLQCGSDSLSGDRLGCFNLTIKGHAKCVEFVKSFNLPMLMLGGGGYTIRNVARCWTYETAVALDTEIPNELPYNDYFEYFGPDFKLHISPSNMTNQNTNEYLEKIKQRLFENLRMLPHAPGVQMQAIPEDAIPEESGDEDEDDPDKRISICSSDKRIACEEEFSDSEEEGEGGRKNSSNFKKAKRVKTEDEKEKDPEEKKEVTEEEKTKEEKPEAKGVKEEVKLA
# METHOD_SUMMARY: Inhibition of C-terminal 6His tagged human recombinant full length HDAC1 (1 to 482 residues) using Z- Lys(Ac)-AMC as fluorogenic substrate incubated for 90 mins followed by trypsin addition and measured after 30 min by microplate reader analysis

MOL_SMILES | IC50
O=C(CCCCCCNC(=O)c1ccc(-c2cn(CCCCCCOCCOCCNC(=O)CC34C[C@H]5C[C@@H](C3)C[C@@H](C4)C5)nn2)cc1)NO | 350 nM
O=C(CCCCCCNC(=O)c1ccc(NC(=O)CNC(=O)CC23C[C@H]4C[C@@H](C2)C[C@@H](C3)C4)cc1)NO | 133 nM
O=C(CCCCCCNC(=O)c1ccc(NC(=O)CC23C[C@H]4C[C@@H](C2)C[C@@H](C3)C4)cc1)NO | 192 nM
O=C(CCCCCCNC(=O)c1ccc(NC(=O)CNC(=O)CC2c3ccccc3-c3ccccc32)cc1)NO | 86.4 nM

====

# SUBJECT_OF_TEST: Histone deacetylase
# METHOD_SUMMARY: Inhibition of human recombinant HDAC in human MM.1S cells using Boc-Lys(Epsilon-Ac)-AMC as substrate preincubated for 18 hrs followed by substrate addition and measured after 3 hrs by microplate reader analysis
# Assay type: cell-based
# CONDITION_CONTEXT: mm1.s
MEASUREMENT_KIND: IC50

MOL_SMILES | READOUT_VALUE
O=C(CCCCCCNC(=O)c1ccc(NC(=O)CNC(=O)CC2c3ccccc3-c3ccccc32)cc1)NO | 540 nM
O=C(CCCCCCNC(=O)c1ccc(NC(=O)CNC(=O)CC23C[C@H]4C[C@@H](C2)C[C@@H](C3)C4)cc1)NO | 580 nM
O=C(CCCCCCNC(=O)c1ccc(-c2cn(CCCCCCOCCOCCNC(=O)CC34C[C@H]5C[C@@H](C3)C[C@@H](C4)C5)nn2)cc1)NO | 1170 nM
O=C(CCCCCCNC(=O)c1ccc(NC(=O)CC23C[C@H]4C[C@@H](C2)C[C@@H](C3)C4)cc1)NO | 1120 nM

====

# SUBJECT_OF_TEST: UniProtKB Q92769
# Sequence (Q92769 whole entry): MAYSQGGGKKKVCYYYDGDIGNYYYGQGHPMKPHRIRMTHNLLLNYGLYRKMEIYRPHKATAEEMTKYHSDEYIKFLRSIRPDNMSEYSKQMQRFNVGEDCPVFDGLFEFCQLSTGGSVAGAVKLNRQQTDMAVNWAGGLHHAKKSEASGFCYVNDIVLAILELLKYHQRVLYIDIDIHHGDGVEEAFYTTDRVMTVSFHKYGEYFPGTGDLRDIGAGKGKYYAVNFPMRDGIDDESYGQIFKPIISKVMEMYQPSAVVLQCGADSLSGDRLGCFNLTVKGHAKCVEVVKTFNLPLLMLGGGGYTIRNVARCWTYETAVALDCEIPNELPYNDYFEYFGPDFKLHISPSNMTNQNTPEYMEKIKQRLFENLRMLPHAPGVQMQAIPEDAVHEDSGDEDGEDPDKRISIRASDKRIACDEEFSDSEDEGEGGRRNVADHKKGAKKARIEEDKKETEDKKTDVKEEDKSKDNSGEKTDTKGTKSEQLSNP

MOL_SMILES | U | IC50
O=C(CCCCCCNC(=O)c1ccc(-c2cn(CCCCCCOCCOCCNC(=O)CC34C[C@H]5C[C@@H](C3)C[C@@H](C4)C5)nn2)cc1)NO | nM | 434

====

Attribute: pIC50
# SUBJECT_OF_TEST: Protein deacetylase HDAC6 (Homo sapiens, UniProt Q9UBN7)
# Sequence (Q9UBN7 whole entry, the tested form may be a part): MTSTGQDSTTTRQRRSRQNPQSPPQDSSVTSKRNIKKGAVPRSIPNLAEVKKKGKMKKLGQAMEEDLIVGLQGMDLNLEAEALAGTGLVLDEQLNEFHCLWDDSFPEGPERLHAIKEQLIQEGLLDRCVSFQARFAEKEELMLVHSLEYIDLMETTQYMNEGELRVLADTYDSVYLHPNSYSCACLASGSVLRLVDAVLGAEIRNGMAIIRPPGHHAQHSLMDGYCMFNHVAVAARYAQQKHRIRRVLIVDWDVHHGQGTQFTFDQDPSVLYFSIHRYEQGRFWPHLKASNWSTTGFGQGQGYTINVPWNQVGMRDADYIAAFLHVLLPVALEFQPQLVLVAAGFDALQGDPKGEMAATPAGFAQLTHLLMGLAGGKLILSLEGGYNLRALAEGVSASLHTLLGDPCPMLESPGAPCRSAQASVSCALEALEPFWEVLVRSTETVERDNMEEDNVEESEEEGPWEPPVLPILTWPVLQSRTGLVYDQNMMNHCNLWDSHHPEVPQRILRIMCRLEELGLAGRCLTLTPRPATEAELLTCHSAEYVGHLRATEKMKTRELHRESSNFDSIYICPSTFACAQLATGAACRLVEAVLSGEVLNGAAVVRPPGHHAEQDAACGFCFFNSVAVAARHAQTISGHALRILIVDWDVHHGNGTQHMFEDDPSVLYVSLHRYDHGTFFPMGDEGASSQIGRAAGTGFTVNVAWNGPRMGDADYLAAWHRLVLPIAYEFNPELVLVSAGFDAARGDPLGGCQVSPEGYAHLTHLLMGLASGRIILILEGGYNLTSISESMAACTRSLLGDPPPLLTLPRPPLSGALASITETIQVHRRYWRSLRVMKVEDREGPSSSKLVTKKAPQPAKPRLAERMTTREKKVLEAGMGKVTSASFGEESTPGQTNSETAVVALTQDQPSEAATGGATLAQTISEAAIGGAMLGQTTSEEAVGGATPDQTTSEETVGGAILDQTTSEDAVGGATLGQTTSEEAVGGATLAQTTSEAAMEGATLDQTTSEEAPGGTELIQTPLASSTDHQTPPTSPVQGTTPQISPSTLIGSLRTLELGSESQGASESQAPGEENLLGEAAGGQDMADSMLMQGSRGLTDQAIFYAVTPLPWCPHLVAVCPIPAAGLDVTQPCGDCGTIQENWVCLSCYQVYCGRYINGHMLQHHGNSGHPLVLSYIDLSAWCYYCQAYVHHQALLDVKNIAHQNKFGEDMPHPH
# METHOD_SUMMARY: Inhibition of C-terminal GST tagged human recombinant full length HDAC6 (1 to 1215 residues) using Z- Lys(Ac)-AMC as fluorogenic substrate incubated for 90 mins followed by trypsin addition and measured after 30 min by microplate reader analysis
pIC50: −log10 of the molar value.
MEASUREMENT_KIND: pIC50

MOL_SMILES | MEASUREMENT_KIND | READOUT_VALUE
O=C(CCCCCCNC(=O)c1ccc(NC(=O)CNC(=O)CC23C[C@H]4C[C@@H](C2)C[C@@H](C3)C4)cc1)NO | pIC50 | 8.23
O=C(CCCCCCNC(=O)c1ccc(NC(=O)CNC(=O)CC2c3ccccc3-c3ccccc32)cc1)NO | pIC50 | 8.48
O=C(CCCCCCNC(=O)c1ccc(-c2cn(CCCCCCOCCOCCNC(=O)CC34C[C@H]5C[C@@H](C3)C[C@@H](C4)C5)nn2)cc1)NO | pIC50 | 7.75
O=C(CCCCCCNC(=O)c1ccc(NC(=O)CC23C[C@H]4C[C@@H](C2)C[C@@H](C3)C4)cc1)NO | pIC50 | 8.28
